All values here come from ChEMBL document CHEMBL3751829.

# System: Rattus norvegicus
# Test description: Increase in body weight gain in male wistar rat at 5ml/kg, po qd measured on 15th day after 24 hrs of last dose (Rvb=9.412+/-1.632g%)
# Format: ADME, organism-based
# Experimental setup: in vivo
Measurement name: Activity (g%)
Give the value, in units of g%, as a plain number.

// fetch Activity given entry C[C@]12CC[C@H]3[C@@H](CC=C4C=C(c5nnn[nH]5)CC[C@@H]43)[C@@H]1CCC2=O
21.51

Report measured Activity; entry is C=CCN1C(=O)CC[C@H]2[C@@H]3CC=C4C=C(c5nnn[nH]5)CC[C@]4(C)[C@H]3CC[C@@]21C
19.229

Supply recorded Activity for CN1C(=O)CC[C@H]2[C@@H]3CC=C4C=C(c5nnn[nH]5)CC[C@]4(C)[C@H]3CC[C@@]21C here.
15.456

Check the records and state Activity for C[C@]12CCC(c3nnn[nH]3)=CC1=CC[C@@H]1[C@@H]2CC[C@]2(C)NC(=O)CC[C@@H]12
15.498

Tell me its Activity given C[C@]12CCC(c3nnn[nH]3)=CC1=CC[C@@H]1[C@@H]2CC[C@]2(C)C(=O)CC[C@@H]12 as the entry.
18.382

Look up and report measured Activity for this entry: C[C@]12CC[C@H]3[C@@H](CCC4=CC(=O)CC[C@@]43C)[C@@H]1CC[C@@H]2O [TESTOSTERONE]
3.767

---

Provide the reported Activity of each item.
# Test system: Rattus norvegicus
# Test description: Effect on organ weight in male wistar rat assessed as liver tissue weight per 100g at 5ml/kg, po qd measured on 15th day after 24 hrs of last dose (Rvb=2.994+/- 0.254 g/100g)
# Type: ADME, organism-based
# Experimental setup: in vivo
Write the quantity with the unit trailing the number.

Give the reported Activity for this molecule. C[C@]12CC[C@H]3[C@@H](CCC4=CC(=O)CC[C@@]43C)[C@@H]1CC[C@@H]2O [TESTOSTERONE]
3.292 g

Output measured Activity for this item: C[C@]12C=CC(=O)N[C@@H]1CC[C@@H]1[C@@H]2CC[C@]2(C)[C@@H](C(=O)Nc3cc(C(F)(F)F)ccc3C(F)(F)F)CC[C@@H]12 [DUTASTERIDE]
3.209 g

Provide Activity value for the following molecule: C[C@]12CC[C@H]3[C@@H](CC=C4C=C(c5nnn[nH]5)CC[C@@H]43)[C@@H]1CCC2=O
3.457 g
